molecular target: human C1 (Homo sapiens); construct: substrate fluid phase human C2, in presence of C4; assay: Test, Code 026 (C1 inhibitor): protection of fluid phase human C2 from activated human C1; format: biochemical; settings: activity in wells, twofold serial dilution; higher well number indicates higher activity
Sequence (P09871 16-688): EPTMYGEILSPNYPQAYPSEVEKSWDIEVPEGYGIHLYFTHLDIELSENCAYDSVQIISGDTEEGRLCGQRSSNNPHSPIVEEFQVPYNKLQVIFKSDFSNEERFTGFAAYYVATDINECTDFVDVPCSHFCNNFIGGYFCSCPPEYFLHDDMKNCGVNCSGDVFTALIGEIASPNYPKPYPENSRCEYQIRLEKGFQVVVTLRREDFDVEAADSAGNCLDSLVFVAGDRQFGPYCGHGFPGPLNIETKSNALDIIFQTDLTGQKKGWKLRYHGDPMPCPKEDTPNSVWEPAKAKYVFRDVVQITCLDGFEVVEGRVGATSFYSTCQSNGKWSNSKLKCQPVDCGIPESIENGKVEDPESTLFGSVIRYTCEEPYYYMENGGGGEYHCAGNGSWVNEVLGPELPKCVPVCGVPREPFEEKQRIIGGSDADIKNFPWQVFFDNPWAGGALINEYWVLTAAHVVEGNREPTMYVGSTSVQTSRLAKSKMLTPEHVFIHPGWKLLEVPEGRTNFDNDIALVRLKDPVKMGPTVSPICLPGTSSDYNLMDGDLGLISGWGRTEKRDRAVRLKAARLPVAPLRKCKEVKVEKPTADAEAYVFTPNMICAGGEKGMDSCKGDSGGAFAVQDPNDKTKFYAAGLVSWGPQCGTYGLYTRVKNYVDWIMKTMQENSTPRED
Sequence (P00736 18-705 partner): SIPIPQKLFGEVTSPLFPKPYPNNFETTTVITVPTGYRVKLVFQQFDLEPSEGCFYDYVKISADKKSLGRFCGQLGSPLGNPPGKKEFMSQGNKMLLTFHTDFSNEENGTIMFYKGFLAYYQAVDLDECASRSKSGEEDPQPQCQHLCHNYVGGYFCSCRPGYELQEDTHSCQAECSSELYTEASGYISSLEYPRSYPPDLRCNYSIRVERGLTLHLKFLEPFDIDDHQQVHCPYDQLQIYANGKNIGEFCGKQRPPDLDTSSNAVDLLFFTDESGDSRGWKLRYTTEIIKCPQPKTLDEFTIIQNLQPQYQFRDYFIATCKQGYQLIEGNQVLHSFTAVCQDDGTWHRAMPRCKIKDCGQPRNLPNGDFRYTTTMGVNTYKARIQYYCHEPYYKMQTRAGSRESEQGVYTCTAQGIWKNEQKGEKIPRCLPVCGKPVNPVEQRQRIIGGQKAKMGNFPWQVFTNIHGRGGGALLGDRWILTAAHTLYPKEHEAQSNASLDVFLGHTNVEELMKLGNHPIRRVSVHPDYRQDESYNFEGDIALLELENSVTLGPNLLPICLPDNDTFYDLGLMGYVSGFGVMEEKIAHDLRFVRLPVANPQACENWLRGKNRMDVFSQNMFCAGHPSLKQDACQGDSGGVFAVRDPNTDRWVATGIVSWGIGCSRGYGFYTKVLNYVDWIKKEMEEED
Sequence (P02745 23-245 partner): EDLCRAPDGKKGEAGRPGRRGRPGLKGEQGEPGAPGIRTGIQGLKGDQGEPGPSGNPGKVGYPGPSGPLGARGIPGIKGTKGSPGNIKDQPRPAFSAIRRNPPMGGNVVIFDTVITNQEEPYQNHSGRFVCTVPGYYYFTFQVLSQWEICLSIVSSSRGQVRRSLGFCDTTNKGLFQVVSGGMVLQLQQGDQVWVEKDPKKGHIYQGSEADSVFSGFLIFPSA
Sequence (P02746 28-253 partner): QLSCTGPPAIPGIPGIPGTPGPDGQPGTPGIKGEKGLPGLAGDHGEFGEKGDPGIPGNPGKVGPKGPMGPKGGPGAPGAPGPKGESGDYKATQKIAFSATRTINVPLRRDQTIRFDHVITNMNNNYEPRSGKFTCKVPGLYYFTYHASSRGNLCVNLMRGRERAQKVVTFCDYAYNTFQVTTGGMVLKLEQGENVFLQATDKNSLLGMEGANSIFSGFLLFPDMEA
Sequence (P02747 29-245 partner): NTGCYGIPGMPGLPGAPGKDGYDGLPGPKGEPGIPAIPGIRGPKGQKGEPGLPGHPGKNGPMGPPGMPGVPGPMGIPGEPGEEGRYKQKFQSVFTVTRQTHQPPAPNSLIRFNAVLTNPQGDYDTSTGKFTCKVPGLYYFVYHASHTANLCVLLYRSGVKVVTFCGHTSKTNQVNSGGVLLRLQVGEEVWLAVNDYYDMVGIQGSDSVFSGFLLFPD
Measure name: C1 026* Wells

Structure smiles string | Measure name | Obs value
O=C(Nc1cc(C(=O)O)cc(C(=O)Nc2ccc(S(=O)(=O)O)c3cc(S(=O)(=O)O)cc(O)c23)c1)Nc1cc(C(=O)O)cc(C(=O)Nc2ccc(S(=O)(=O)O)c3cc(S(=O)(=O)O)cc(O)c23)c1 | C1 026* Wells | +4 Wells
O=C(Nc1cc(C(=O)O)cc(C(=O)Nc2ccc(S(=O)(=O)O)c3cc(S(=O)(=O)O)cc(S(=O)(=O)O)c23)c1)Nc1cc(C(=O)O)cc(C(=O)Nc2ccc(S(=O)(=O)O)c3cc(S(=O)(=O)O)cc(S(=O)(=O)O)c23)c1 | C1 026* Wells | +5 Wells
COC(=O)c1cc(NC(=O)Nc2cc(C(=O)Nc3ccc(S(=O)(=O)O)c4cc(S(=O)(=O)O)cc(S(=O)(=O)O)c34)cc(C(=O)OC)c2)cc(C(=O)Nc2ccc(S(=O)(=O)O)c3cc(S(=O)(=O)O)cc(S(=O)(=O)O)c23)c1 | C1 026* Wells | +4 Wells
O=C(Nc1ccc(C(=O)Nc2cc(S(=O)(=O)[O-])cc3ccc(S(=O)(=O)[O-])cc23)c(S(=O)(=O)[O-])c1)Nc1ccc(C(=O)Nc2cc(S(=O)(=O)[O-])cc3ccc(S(=O)(=O)[O-])cc23)c(S(=O)(=O)[O-])c1.[Na+].[Na+].[Na+].[Na+].[Na+].[Na+] | C1 026* Wells | +5 Wells
O=C(Nc1ccc(C(=O)Nc2ccc(S(=O)(=O)[O-])c3cc(S(=O)(=O)[O-])cc(O)c23)c(S(=O)(=O)[O-])c1)Nc1ccc(C(=O)Nc2ccc(S(=O)(=O)[O-])c3cc(S(=O)(=O)[O-])cc(O)c23)c(S(=O)(=O)[O-])c1.[Na+].[Na+].[Na+].[Na+].[Na+].[Na+] | C1 026* Wells | +7 Wells
O=C(Nc1ccc(C(=O)Nc2ccc(S(=O)(=O)[O-])c3cccc(S(=O)(=O)O)c23)c(S(=O)(=O)[O-])c1)Nc1ccc(C(=O)Nc2ccc(S(=O)(=O)O)c3cccc(S(=O)(=O)O)c23)c(S(=O)(=O)[O-])c1.[Na+].[Na+].[Na+] | C1 026* Wells | +7 Wells
O=C(Nc1cc(C(=O)O)cc(C(=O)Nc2cc(S(=O)(=O)O)cc3cc(S(=O)(=O)O)cc(S(=O)(=O)O)c23)c1)Nc1cc(C(=O)O)cc(C(=O)Nc2cc(S(=O)(=O)O)cc3cc(S(=O)(=O)O)cc(S(=O)(=O)O)c23)c1 | C1 026* Wells | +10 Wells
O=C(Nc1ccc(C(=O)Nc2cc3ccccc3cc2C(=O)[O-])c(S(=O)(=O)[O-])c1)Nc1ccc(C(=O)Nc2cc3ccccc3cc2C(=O)[O-])c(S(=O)(=O)[O-])c1.[Na+].[Na+].[Na+].[Na+] | C1 026* Wells | N
CC(=O)Nc1ccc2c(S(=O)(=O)O)cc(S(=O)(=O)O)cc2c1NC(=O)c1ccc(NC(=O)Nc2ccc(C(=O)Nc3c(NC(C)=O)ccc4c(S(=O)(=O)O)cc(S(=O)(=O)O)cc34)c(S(=O)(=O)O)c2)cc1S(=O)(=O)O | C1 026* Wells | +8 Wells

---

Recorded change in vivo at 200 mg/kg, one value per entry.
test system: whole complement; experiment: In vivo complement inhibition in guinea pigs (whole complement of serum, capillary tube assay); set-up: species or system guinea pig; conditions: Cavia porcellus, ip, 0.5 h; intraperitoneal, 200 mg/kg, 30 mins.; read-out: In Vivo Activity (Guinea Pig) % Inhibition Intraperitoneal 30 mins.
Measure name: change in vivo at 200 mg/kg (%)

Structure smiles string | Measure name | Output unit | Obs value
O=C(Nc1cc(C(=O)O)cc(C(=O)Nc2cc(S(=O)(=O)O)cc3cc(S(=O)(=O)O)cc(S(=O)(=O)O)c23)c1)Nc1cc(C(=O)O)cc(C(=O)Nc2cc(S(=O)(=O)O)cc3cc(S(=O)(=O)O)cc(S(=O)(=O)O)c23)c1 | change in vivo at 200 mg/kg | % | -37
CC(=O)Nc1ccc2c(S(=O)(=O)O)cc(S(=O)(=O)O)cc2c1NC(=O)c1ccc(NC(=O)Nc2ccc(C(=O)Nc3c(NC(C)=O)ccc4c(S(=O)(=O)O)cc(S(=O)(=O)O)cc34)c(S(=O)(=O)O)c2)cc1S(=O)(=O)O | change in vivo at 200 mg/kg | % | -19
O=C(Nc1ccc(C(=O)Nc2cc(S(=O)(=O)O)cc3cccc(S(=O)(=O)O)c23)c(S(=O)(=O)O)c1)Nc1ccc(C(=O)Nc2cc(S(=O)(=O)O)cc3cccc(S(=O)(=O)O)c23)c(S(=O)(=O)O)c1 | change in vivo at 200 mg/kg | % | -10
O=C(Nc1ccc(C(=O)Nc2cc(S(=O)(=O)O)cc3cc(S(=O)(=O)O)cc(S(=O)(=O)O)c23)c(S(=O)(=O)O)c1)Nc1ccc(C(=O)Nc2cc(S(=O)(=O)O)cc3cc(S(=O)(=O)O)cc(S(=O)(=O)O)c23)c(S(=O)(=O)O)c1 | change in vivo at 200 mg/kg | % | 4

---

test system: whole complement; assay: In vivo complement inhibition in guinea pigs (whole complement of serum, capillary tube assay); set-up: species or system guinea pig; conditions: Cavia porcellus, ip, 0.5 h, read-out: In Vivo Activity (Guinea Pig) % Inhibition Intraperitoneal 30 mins.

Molecule | change in vivo at 200 mg/kg (%)
O=C(Nc1ccc(S(=O)(=O)[O-])c(C(=O)Nc2cc(S(=O)(=O)[O-])cc3cc(S(=O)(=O)[O-])cc(S(=O)(=O)[O-])c23)c1)Nc1ccc(S(=O)(=O)[O-])c(C(=O)Nc2cc(S(=O)(=O)[O-])cc3cc(S(=O)(=O)[O-])cc(S(=O)(=O)[O-])c23)c1.[Na+].[Na+].[Na+].[Na+].[Na+].[Na+].[Na+].[Na+] | -23
O=C(Nc1ccc(C(=O)Nc2ccc(S(=O)(=O)[O-])c3ccc(S(=O)(=O)[O-])cc23)c(S(=O)(=O)[O-])c1)Nc1ccc(C(=O)Nc2ccc(S(=O)(=O)[O-])c3ccc(S(=O)(=O)[O-])cc23)c(S(=O)(=O)[O-])c1.[Na+].[Na+].[Na+].[Na+].[Na+].[Na+] | -3
O=C(Nc1ccc(C(=O)Nc2ccc(S(=O)(=O)[O-])c3cccc(S(=O)(=O)O)c23)c(S(=O)(=O)[O-])c1)Nc1ccc(C(=O)Nc2ccc(S(=O)(=O)O)c3cccc(S(=O)(=O)O)c23)c(S(=O)(=O)[O-])c1.[Na+].[Na+].[Na+] [trisodium salt] | -10

---

tested on: whole complement; test: In vivo complement inhibition in guinea pigs (whole complement of serum, capillary tube assay); set-up: species or system guinea pig; conditions: intravenous, 200 mg/kg, 120 mins.
Measure name: In Vivo Activity (Guinea Pig) % Inhibition Intravenous 120 mins.

Structure smiles string | Obs value
O=C(Nc1cc(C(=O)O)cc(C(=O)Nc2cc(S(=O)(=O)O)cc3cc(S(=O)(=O)O)cc(S(=O)(=O)O)c23)c1)Nc1cc(C(=O)O)cc(C(=O)Nc2cc(S(=O)(=O)O)cc3cc(S(=O)(=O)O)cc(S(=O)(=O)O)c23)c1 | -39%
O=C(Nc1ccc(C(=O)Nc2cc(S(=O)(=O)O)cc3cc(S(=O)(=O)O)cc(S(=O)(=O)O)c23)c(S(=O)(=O)O)c1)Nc1ccc(C(=O)Nc2cc(S(=O)(=O)O)cc3cc(S(=O)(=O)O)cc(S(=O)(=O)O)c23)c(S(=O)(=O)O)c1 | -24%
O=C(Nc1ccc(C(=O)Nc2cc(S(=O)(=O)O)cc3cc(S(=O)(=O)O)cc(O)c23)c(S(=O)(=O)O)c1)Nc1ccc(C(=O)Nc2cc(S(=O)(=O)O)cc3cc(S(=O)(=O)O)cc(O)c23)c(S(=O)(=O)O)c1 | -63%

---

test system: whole complement; test: In vivo complement inhibition in guinea pigs (whole complement of serum, capillary tube assay); set-up: species or system guinea pig; conditions: Cavia porcellus, ip, 0.5 h; intraperitoneal, 200 mg/kg, 30 mins.; read-out: In Vivo Activity (Guinea Pig) % Inhibition Intraperitoneal 30 mins.
Recorded change in vivo at 200 mg/kg, one value per entry.
Measure name: change in vivo at 200 mg/kg (%)

Structure smiles string | Assayed system | Measure name | Output unit | Obs value
O=C(Nc1cc(C(=O)O)cc(C(=O)Nc2ccc(S(=O)(=O)O)c3cc(S(=O)(=O)O)cc(S(=O)(=O)O)c23)c1)Nc1cc(C(=O)O)cc(C(=O)Nc2ccc(S(=O)(=O)O)c3cc(S(=O)(=O)O)cc(S(=O)(=O)O)c23)c1 | whole complement | change in vivo at 200 mg/kg | % | -40
COC(=O)c1cc(NC(=O)Nc2cc(C(=O)Nc3ccc(S(=O)(=O)O)c4cc(S(=O)(=O)O)cc(S(=O)(=O)O)c34)cc(C(=O)OC)c2)cc(C(=O)Nc2ccc(S(=O)(=O)O)c3cc(S(=O)(=O)O)cc(S(=O)(=O)O)c23)c1 | whole complement | change in vivo at 200 mg/kg | % | -14
O=C(Nc1ccc(C(=O)Nc2cc(S(=O)(=O)O)cc3cc(S(=O)(=O)O)cc(O)c23)c(S(=O)(=O)O)c1)Nc1ccc(C(=O)Nc2cc(S(=O)(=O)O)cc3cc(S(=O)(=O)O)cc(O)c23)c(S(=O)(=O)O)c1 | whole complement | change in vivo at 200 mg/kg | % | -35
O=C(Nc1ccc(C(=O)Nc2cccc3cc(S(=O)(=O)O)cc(O)c23)c(S(=O)(=O)O)c1)Nc1ccc(C(=O)Nc2cccc3cc(S(=O)(=O)O)cc(O)c23)c(S(=O)(=O)O)c1 | whole complement | change in vivo at 200 mg/kg | % | -26
